Tested on: L1210
Experiment notes: Antitumor activity against mouse L1210 cells xenografted in BDF1 mouse assessed as median survival time at 1.6 mg/kg, ip
Format: functional
Condition notes: route intraperitoneal
Activity for assorted molecules

Smiles structure	Quantity unit	Activity
CC[C@@]1(O)C[C@H](O[C@H]2C[C@H](N(C)C)[C@H](O[C@H]3C[C@H](O)[C@H](O[C@@H]4O[C@@H](C)C(=O)C=C4N)[C@@H](C)O3)[C@@H](C)O2)c2c(cc3c(c2O)C(=O)c2c(O)ccc(O)c2C3=O)[C@H]1C(=O)OC	days	10
CC[C@@]1(O)C[C@H](O[C@H]2C[C@H](N(C)C)[C@H](O[C@H]3C[C@H](O)[C@H](O)[C@@H](C)O3)[C@@H](C)O2)c2c(cc3c(c2O)C(=O)c2c(O)ccc(O)c2C3=O)[C@H]1C(=O)OC	days	8
CC[C@@]1(O)C[C@H](O[C@H]2C[C@H](N(C)C)[C@H](O[C@H]3C[C@H](O)[C@H](O[C@@H]4C[C@H](O)[C@H](O)[C@H](C)O4)[C@H](C)O3)[C@@H](C)O2)c2c(cc3c(c2O)C(=O)c2c(O)ccc(O)c2C3=O)[C@@H]1C(=O)OC	days	7.5
CC[C@@]1(O)C[C@H](O[C@H]2C[C@H](NC)[C@H](O[C@H]3C[C@H](O)[C@H](O[C@@H]4C[C@H](O)[C@H](O)[C@H](C)O4)[C@H](C)O3)[C@@H](C)O2)c2c(cc3c(c2O)C(=O)c2c(O)ccc(O)c2C3=O)[C@H]1C(=O)OC	days	7

Entry source: ChEMBL document CHEMBL1151339
